- protocolDescription: Human HepG2 cell viability assay in 384 well format
- Type: toxicity, cell-based
- Design: dose 125 nL, time 70.5 hour; concentration not given beside the values
- measurementParameters: HepG2 cells, read-out: Inhibition
The following compounds are listed with their measured cytotoxicity at 70.5 h values.
# value in %; strip the unit string

>>> measured("CCc1nc(CN(C)C2CCN(CCn3cc(C#N)cn3)C2)no1 (stereo unspecified)")
37.1
>>> measured("O=C1CC2(CCN(CCCO)CC2)CN1Cc1ccc(F)c(F)c1")
-5
>>> measured("Cc1cnn(CCC(=O)N2CCCC(c3nc(C)no3)C2)c1 (stereo unspecified)")
37.7
>>> measured("O=C(CCNc1ncccn1)Nc1ccc(Cn2cncn2)cc1")
-7.19
>>> measured("Cc1cnc(N2CCC3(CC2)CN(c2ccsc2)C(=O)CO3)nc1")
-5

For `Cc1cccc(CN2CCc3nnc(CN4CCCC4=O)n3CC2)n1` the compound record lists cytotoxicity at 70.5 h as -16.9

---

- protocolDescription: Human HepG2 cell viability assay in 384 well format
- Format: toxicity, cell-based
- Parameters: dose 125 nL, time 70.5 hour; concentration not given beside the values
- measurementParameters: HepG2 cells, read-out: Inhibition
resultType: cytotoxicity at 70.5 h (%)
Numbers only here, please. The scale is %.

Would you please look over these solved cases?
>>> measured("COC[C@]12COC[C@H]1CN(Cc1cccnc1OC)C2")
-19
>>> measured("CC(NC(=O)NCC1(N2CCCCC2)CCCCC1)c1nncn1C (stereo unspecified)")
-20.6
>>> measured("Cc1ccc(S(=O)(=O)N2CCn3nc(C)nc3C2)c(Cl)c1")
-2.97

Per the record, NCC(=O)N1CCCC1c1ccc(C(=O)NCc2ccoc2)s1 (stereo unspecified) has cytotoxicity at 70.5 h of -2.34

Value of cytotoxicity at 70.5 h reported for the compound Cc1noc(CN(C)CC2(O)CCCN(CCC3CCCCC3)C2=O)n1 (stereo unspecified) is -0.981

cytotoxicity at 70.5 h measured on `CN1[C@H]2CC[C@@H]1CN(C(=O)c1sccc1S(N)(=O)=O)CC2` = -4.92

The measured cytotoxicity at 70.5 h associated with `CCCS(=O)(=O)CC(=O)N1CCN(CC2CC2)c2ccccc21` reads -7.98

Recorded result, `Cc1cc(NCCNc2ncccc2C)n2nc(C)cc2n1` , cytotoxicity at 70.5 h: -15.2

# cytotoxicity at 70.5 h (compound: `O=C1CO[C@@H]2CN(Cc3nccs3)C[C@H]2N1Cc1ccncc1` ) is -11.4

So, `CN(C)c1cc(C(=O)N2CCCN(Cc3nccn3C)CC2)ccn1` ? Its cytotoxicity at 70.5 h was 14.3

Consider Cc1cc(C)n(CC2CCCN2CC(=O)NC2CCOCC2)n1 (stereo unspecified) . Its measured cytotoxicity at 70.5 h is -15.9

---

- protocolDescription: Human HepG2 cell viability assay in 384 well format
- Type: toxicity, cell-based
- Set-up: dose 125 nL, time 70.5 hour; concentration not given beside the values
- measurementParameters: HepG2 cells, read-out: Inhibition
resultType: cytotoxicity at 70.5 h (%)
Numbers only here, please. The scale is %.

What the record says about CN(C)C(CNC(=O)c1cccc(C(N)=O)c1)c1ccccc1Cl (centres undefined) : cytotoxicity at 70.5 h is 3.17

Per the record, `CCCN(Cc1ccccc1O)S(=O)(=O)N(C)CC` has cytotoxicity at 70.5 h of -6.19

Measured cytotoxicity at 70.5 h of CC(C)NC(=O)CC1COC2(CCN(Cc3ccsc3)CC2)C1 (centres undefined) : -9.99

Just so you know, measured cytotoxicity at 70.5 h for Cc1c(CN2CCCC2(C)C(=O)N2CCOCC2)cnn1C (centres undefined) came out at -7.03

---

- protocolDescription: Human HepG2 cell viability assay in 384 well format
- Format: toxicity, cell-based
- Set-up: dose 125 nL, time 70.5 hour; concentration not given beside the values
- measurementParameters: HepG2 cells, read-out: Inhibition
// cytotoxicity at 70.5 h lookup, one value per entry
Express your answer in %, writing the number without its unit.

>>> measured("CC(=O)NCC(=O)N1CCN(CCN(C)C)c2ncccc2C1")
-14.2

// recorded cytotoxicity at 70.5 h for N#Cc1cccnc1N1CCC(Nc2ccccc2)C1 (configuration not stated) : -8.64

# compound Cn1ccnc1C1CCCN(C(=O)c2cc(F)cc(F)c2)C1 (configuration not stated) ; its cytotoxicity at 70.5 h = -6.29

The recorded cytotoxicity at 70.5 h for `c1cnc(N2CCO[C@H]3[C@H](OCCN4CCCC4)CC[C@@H]32)nc1` is 0.11

Reported cytotoxicity at 70.5 h for Cc1cc(C)n(C2CCCN(C(=O)c3ccnc(N(C)C)c3)C2)n1 (configuration not stated) was -0.851

For this compound ( O=C(CS(=O)(=O)C1CCCC1)NC1CCCc2cc(OC(F)F)ccc21 (configuration not stated) ), measured cytotoxicity at 70.5 h is -9.47

Record summary for CC(c1ccccc1)N(C)CC(=O)NCCC#N (configuration not stated) : reported cytotoxicity at 70.5 h = -11.2

cytotoxicity at 70.5 h in this record for Cc1[nH]nc(CCC(=O)NCC2CCN(C3CCCCC3)C2)c1C (configuration not stated) : -4.71

Lab note: CS(=O)(=O)CCC(=O)NC1CC(c2cccc(Cl)c2)C1 (configuration not stated) gave cytotoxicity at 70.5 h of 14.6

Looking up CN(C)CCOCC1CN(CC2CCOCC2)Cc2nnn(C)c21 (configuration not stated) , I see its cytotoxicity at 70.5 h listed as -6.51

`COCC(=O)Nc1ccc(-c2noc([C@@H]3CCCN3CC(C)C)n2)cn1` yielded cytotoxicity at 70.5 h of 10.2

The compound identified as `O=C(O)CN1CCC2(CCc3ccccc32)CC1` registered its cytotoxicity at 70.5 h at 13.9

The compound identified as O=C1CCC(C(=O)NCc2nn(-c3ccccc3)c3c2CCC3)CN1 (configuration not stated) registered its cytotoxicity at 70.5 h at 4.23

Consider `Cc1ncccc1C(=O)NCc1ccccc1CN(C)Cc1ccco1` . Its measured cytotoxicity at 70.5 h is -1.05

cytotoxicity at 70.5 h measured on c1cnnc(N2CCCC(NCc3nc(-c4ccsc4)no3)C2)c1 (configuration not stated) = -0.51

---

- protocolDescription: Human HepG2 cell viability assay in 384 well format
- Format: toxicity, cell-based
- Design: dose 125 nL, time 70.5 hour; concentration not given beside the values
- measurementParameters: HepG2 cells, read-out: Inhibition
resultType: cytotoxicity at 70.5 h
Reply with a number, then the unit it belongs to.

The cases that follow already have their cytotoxicity at 70.5 h on record.
>>> measured("COc1ccc(C2Nc3cc(Cl)ccc3C3=NCCN32)cc1O (stereo unspecified)")
"-1.91%"
>>> measured("O=C(NCc1nnc2ccccn12)N1CCc2sccc2C1")
"-21.7%"
>>> measured("CC(C)Cc1nc(CCn2ccc(=O)[nH]c2=O)n(-c2ccccn2)n1")
"11.3%"
>>> measured("Cn1nc2c(cc1=O)CN(Cc1nc(-c3cccnc3)no1)CC2")
"-3.78%"
>>> measured("O=C(NC1CCC1)[C@@H]1C[C@@H]2CCN(CCc3ccccc3)C[C@H]2O1")
"-8.97%"

Kindly consider the entry below.
Recorded cytotoxicity at 70.5 h (compound `COc1ccccc1OC1CN(C(=O)c2ccccc2C(C)=O)C1` ): -19.5%

---

- protocolDescription: Human HepG2 cell viability assay in 384 well format
- Format: toxicity, cell-based
- Design: dose 125 nL, time 70.5 hour; concentration not given beside the values
- measurementParameters: HepG2 cells, read-out: Inhibition
resultType: cytotoxicity at 70.5 h

Check out these entries, answers already filled in.
>>> measured("CCc1nc(CN(C)C2CCN(Cc3nnc(C4CCC4)o3)C2)no1 (stereo unspecified)")
"-0.232%"
>>> measured("COc1cc(F)c(-n2cnc(CCNC(C)=O)c2)cc1F")
"-10.8%"
>>> measured("COc1ccccc1S(=O)(=O)N1CCC(Oc2cccnn2)CC1")
"3.7%"
>>> measured("O=C(CCNC(=O)c1ccoc1)Nc1cc(F)ccc1F")
"-5.4%"
>>> measured("COc1cc(CCC(=O)NC(C)C(=O)O)ccc1OCC(F)(F)F (stereo unspecified)")
"-13%"

Pending compound:
Recorded result, `CC(=O)c1cc(Br)cc(F)c1OCC(=O)NC1CC1` , cytotoxicity at 70.5 h: 0.481%

---

The entries below come with measured cytotoxicity at 70.5 h values attached.
- protocolDescription: Human HepG2 cell viability assay in 384 well format
- Type: toxicity, cell-based
- Design: dose 125 nL, time 70.5 hour; concentration not given beside the values
- measurementParameters: HepG2 cells, read-out: Inhibition
Just the number in %, nothing appended.

>>> measured("CC[C@H]1CN(C(=O)C(C)(C)C)CC[C@H]1CC(=O)O")
7.7
>>> measured("Cn1cnc2c1CCN(Cc1csc(-c3ccco3)n1)C2")
15.3
>>> measured("CC(C)N1CCC(N2CCN(C3CCC3)CC2CCO)CC1 (configuration not stated)")
-9.59
>>> measured("OCC1(O)CCCN(Cc2noc(-c3ccccc3)n2)CC1 (configuration not stated)")
26.3
>>> measured("CNc1ncc(C(=O)N2CCCC(Cc3ccccc3OC)C2)s1 (configuration not stated)")
20.4
>>> measured("CN(C)c1cc(CNC(=O)Nc2nncs2)ccn1")
-0.639
>>> measured("CCOC(=O)[C@]12CCCN(Cc3nccs3)C[C@H]1CN(CCOC)C2")
-1.13
>>> measured("O=C(NC1(C(=O)NCC2CC2)CCCC1)C1Cc2cc(F)ccc2O1 (configuration not stated)")
-4.27
>>> measured("CC(NC(=O)CNS(C)(=O)=O)c1ccccc1Oc1ccccc1 (configuration not stated)")
-7.15
>>> measured("Cc1ccc(CN2CCN(C)c3ncccc3C2)o1")
-6.49

For this compound ( `COc1cc(C)c(S(=O)(=O)NCc2cccnc2N(C)C)c(C)c1` ), measured cytotoxicity at 70.5 h is -5.54

Field cytotoxicity at 70.5 h (entry `CN(C)CCN1CCc2ncc(CN(C)Cc3ccco3)n2CC1` ) reads 30
